biological target: human β2‐adrenoceptor (Homo sapiens, UniProt P07550); format: binding
Sequence (P07550 whole entry): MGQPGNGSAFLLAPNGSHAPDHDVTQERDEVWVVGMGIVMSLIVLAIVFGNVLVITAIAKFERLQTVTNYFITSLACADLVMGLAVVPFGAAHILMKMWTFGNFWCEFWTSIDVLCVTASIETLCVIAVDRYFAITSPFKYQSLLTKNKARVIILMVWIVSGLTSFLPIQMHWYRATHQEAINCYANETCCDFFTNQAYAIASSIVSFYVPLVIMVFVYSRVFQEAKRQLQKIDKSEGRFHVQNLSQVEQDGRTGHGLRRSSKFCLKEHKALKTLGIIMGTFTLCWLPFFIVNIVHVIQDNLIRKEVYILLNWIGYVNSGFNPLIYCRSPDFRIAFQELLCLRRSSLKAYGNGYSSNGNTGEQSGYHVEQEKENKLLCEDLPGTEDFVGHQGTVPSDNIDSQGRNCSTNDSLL
MEASURED_PROPERTY: IC50

Record lookup: for human β2‐adrenoceptor (Homo sapiens, UniProt P07550), what IC50 belongs to COC(=O)C1=C(C)NC(C)=C(C(=O)OCCCN2CCC(c3ccccc3)(c3ccccc3)CC2)[C@H]1c1cccc([N+](=O)[O-])c1 ? > 100 µM

* * *

target: human α2B‐adrenoceptor (Homo sapiens); assay: ^3H‐rauwolscine whole cell competition binding, CHO‐α2B cells
Sequence (P18089 whole entry): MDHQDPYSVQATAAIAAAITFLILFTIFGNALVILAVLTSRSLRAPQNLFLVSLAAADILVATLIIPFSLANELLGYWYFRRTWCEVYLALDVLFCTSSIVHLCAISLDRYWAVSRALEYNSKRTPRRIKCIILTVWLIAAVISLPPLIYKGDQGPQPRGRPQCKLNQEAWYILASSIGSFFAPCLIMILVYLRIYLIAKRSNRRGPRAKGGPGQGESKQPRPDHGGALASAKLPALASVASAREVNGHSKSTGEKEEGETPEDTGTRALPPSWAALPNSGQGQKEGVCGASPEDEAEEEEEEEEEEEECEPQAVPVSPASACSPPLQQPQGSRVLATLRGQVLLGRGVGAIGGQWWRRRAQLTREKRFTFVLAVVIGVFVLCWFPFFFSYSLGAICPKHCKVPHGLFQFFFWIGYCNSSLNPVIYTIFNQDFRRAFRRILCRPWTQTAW
MEASURED_PROPERTY: pKd
Answers are plain numbers, as −log10 of the molar value.

CC(C(O)c1ccc(O)cc1)N1CCC(Cc2ccccc2)CC1 (stereo not drawn) : 6.14
CCOc1ccccc1OCCN[C@H](C)Cc1ccc(OC)c(S(N)(=O)=O)c1 : 5.31
CC(C)(C)NCC(O)COc1cccc2[nH]c(C#N)cc12 (stereo not drawn) : 4.82
CNCC[C@H](Oc1cccc2ccccc12)c1cccs1 : 5.31
CN(C)CCCN1c2ccccc2CCc2ccccc21 : 6.36

Which measured pKd belongs to O=C1[C@@H]2[C@H]3CC[C@H](C3)[C@@H]2C(=O)N1C[C@@H]1CCCC[C@H]1CN1CCN(c2nsc3ccccc23)CC1 , tested on human α2B‐adrenoceptor (Homo sapiens)? 7.36
